Provide the reported Preemergence herbicidal rating ABUTH of each item.
- System: ABUTH (Velvetleaf)
- protocolText: Preemergence herbicidal evaluation
- Format: in vivo, Abutilon theophrasti
- protocolConditions: rate 0.0156 kg/ha; rated 4-5 weeks after treatment
One number for each entry.

Check out these entries, answers already filled in.
Exam item: # lookup: Preemergence herbicidal rating ABUTH of CCOC(=O)CN1C(=O)CSC1=Nc1cc(N2C(=O)C3=C(CCCC3)C2=O)c(F)cc1Cl [Compound 47]
Marked response: 4.0

Exam item: Can you look up the measured Preemergence herbicidal rating ABUTH of Cn1c(C(F)(F)F)cc(=O)n(-c2cc(N=C3SCC(=O)N3Cc3ccco3)c(Cl)cc2F)c1=O [Compound 122] for me?
Marked response: 0.0

Consider the following items and state reported Preemergence herbicidal rating ABUTH for each.
1. CCOC(=O)CN1C(=O)C[S+]([O-])/C1=N/c1cc(-n2c(=O)cc(C(F)(F)F)n(C)c2=O)c(F)cc1Cl (stereo not shown) [Compound 45]
2. CCOC(=O)[C@H](C)N1C(=O)CSC1=Nc1cc(-n2c(=O)cc(C(F)(F)F)n(C)c2=O)c(F)cc1Cl [Compound 76]

Marked response:
1. 0.0
2. 1.0

====

- Test system: CHEAL (Lambsquarters, Common)
- protocolText: Postemergence herbicidal evaluation
- Type: in vivo, Chenopodium album
- protocolConditions: Rate 0.0315 kg/ha
Field: Postemergence herbicidal rating CHEAL. Provide a value for each of the molecules that follow.

Exam item: Using the record for CCOC(=O)CN1C(=O)C(CC(=O)O)O/C1=N/c1cc(-n2c(=O)cc(C(F)(F)F)n(C)c2=O)c(F)cc1Cl (stereo not drawn) [Compound 41] , report its Postemergence herbicidal rating CHEAL.
Marked response: 7.0

Exam item: I have this molecule here, Cn1c(C(F)(F)F)cc(=O)n(-c2cc(N=C3SCC(=O)N3CCC(=O)O)c(Cl)cc2F)c1=O [Compound 30] , and I need its recorded Postemergence herbicidal rating CHEAL.
Marked response: 0.0

Exam item: Returns the measured Postemergence herbicidal rating CHEAL for the input molecule. Input: CCOP(=O)(CN1C(=O)CSC1=Nc1cc(-n2c(=O)cc(C(F)(F)F)n(C)c2=O)c(F)cc1Cl)OCC [Compound 35]
Marked response: 9.0

Batch of 3 molecules: report Postemergence herbicidal rating CHEAL for each.
1. COC(=O)CCN1C(=O)CSC1=Nc1cc(-n2c(=O)cc(C(F)(F)F)n(C)c2=O)c(F)cc1Cl [Compound 28]
2. CCOC(=O)CN1C(=O)C(CC(=O)NC)SC1=Nc1cc(-n2c(=O)cc(C(F)(F)F)n(C)c2=O)c(F)cc1Cl (stereo not drawn) [Compound 57]
3. Cn1c(C(F)(F)F)cc(=O)n(-c2cc(/N=C3/SCC(=O)N3CC(=O)O)c(Cl)cc2F)c1=O [Compound 52]

Marked response:
4.0
9.0
4.0

====

- Tested on: CHEAL (Lambsquarters, Common)
- protocolText: Preemergence herbicidal evaluation
- Type: in vivo, Chenopodium album
- protocolConditions: rate 0.1250 kg/ha; rated 4-5 weeks after treatment
propertyName: Preemergence herbicidal rating CHEAL
Answers are plain numbers.

Reference set, count: 2
Exam item: Look up Preemergence herbicidal rating CHEAL: Cn1c(C(F)(F)F)cc(=O)n(-c2cc(N=C3SCC(=O)N3C3CCOC3=O)c(Cl)cc2F)c1=O (stereo not drawn) [Compound 73]
Marked response: 9.0

Exam item: Endpoint output: Preemergence herbicidal rating CHEAL of Cn1c(C(F)(F)F)cc(=O)n(-c2cc(N=C3SCC(=O)N3CC(=O)NS(C)(=O)=O)c(Cl)cc2F)c1=O [Compound 38] . Value?
Marked response: 9.0

***
Exam item: Which Preemergence herbicidal rating CHEAL value is on record for Cn1c(C(F)(F)F)cc(=O)n(-c2cc(N=C3SCC(=O)N3CCC(=O)O)c(Cl)cc2F)c1=O [Compound 31] ?
Marked response: 9.0
